Ref: PubChem BioAssay (NCI)

- Tested on: SNB-75 CNS
- test-summary: NCI tumour cell line growth inhibition, 48 h
experimental-endpoint: TGI

Provide TGI values for the following items, in order.
1. O=C(N/N=C/c1ccc([N+](=O)[O-])o1)c1ccc(C(=O)N/N=C/c2ccc([N+](=O)[O-])o2)cc1
2. S=P1(N2CCCCC2)Oc2ccc3ccccc3c2-c2c(ccc3ccccc23)O1
3. C#CCN(N=O)C(=O)NC(CCCNC(=O)OCc1ccccc1)C(=O)OCc1ccccc1 (stereo not given)

-- reply
1. > 100 µM
2. > 92.1 µM
3. > 100 µM

----------
Answer each item with its documented TGI.
- System: CAKI-1 renal
- test-summary: NCI tumour cell line growth inhibition, 48 h

Would you please look over these solved cases?
# compound, assay-target, experimental-value
data = [
    ("O=S(=O)(N/N=C/c1cccc(Cl)c1Cl)c1ccccc1", "CAKI-1 renal", "> 100 µM"),
    ("CC(C)CCC[C@@H](C)C1CCC2[C@@H]3CC=C4C[C@@H](C(=O)NCC[N+](C)(C)CCCS(=O)(=O)[O-])CC[C@]4(C)C3CC[C@@]21C (stereo partly drawn)", "CAKI-1 renal", "27.2 µM"),
    ("CC(C)CC(=O)Nc1n[nH]c2c1CN(C(=O)C1CCN(C)CC1)C2(C)C", "CAKI-1 renal", "> 10 µM"),
]

Provide TGI values for the following items, in order.
1. O=C1N2CCc3c([nH]c4ccccc34)C23CC2CCCCC12S3 (stereo not drawn)
2. O=S(=O)(SCc1ccccc1)C(c1ccccc1)c1ccccc1
3. CCN(CC)CCNC(=O)c1ccc(I)cc1
4. COC(=O)CCC(=O)Nc1cc(Cl)ccc1Cl
5. CC(C)(C)c1cc2c(O)c(c1)Cc1cc(C(C#N)(Cc3ccc4ccccc4c3)Cc3ccc4ccccc4c3)cc(c1O)Cc1cc(C(C)(C)C)cc(c1O)Cc1cc(C(C#N)(Cc3ccc4ccccc4c3)Cc3ccc4ccccc4c3)cc(c1O)C2

-- reply
> 100 µM
93.8 µM
> 100 µM
> 100 µM
> 100 µM

----------
- Tested on: SK-OV-3 ovarian
- test-summary: NCI tumour cell line growth inhibition, 48 h
Answer each item with its documented TGI.

# compound, TGI
data = [
    ("O=S(=O)(SCc1ccccc1)C(c1ccccc1)c1ccccc1", "> 100 µM"),
    ("O=C(Nc1nn(C(=O)c2ccc(Cl)cc2)c(=O)s1)c1ccc(Cl)cc1", "> 100 µM"),
    ("COC(=O)c1c(O)c([N+](=O)[O-])cc2c1c1c(n2Cc2ccccc2)C(=O)c2ccccc2C1=O", "> 100 µM"),
    ("CC(=O)O[C@@H]1[C@@H](O)C2=C3[C@]4(C)[C@@H]1C(C)(C)C(=O)C[C@@H]4[C@]3(O)[C@H](OC(C)=O)[C@@]1(C[C@@H]1C)C2=O", "52.6 µM"),
    ("CS(=O)(=O)CCNCc1ccc(-c2ccc3ncnc(Nc4ccc(OCc5cccc(F)c5)c(C(F)(F)F)c4)c3c2)o1", "9.86 µM"),
]

Provide TGI values for the following items, in order.
1. COc1cc(C=C2C(C)=NN(c3cccc(Cl)c3)C23C(Cl)C(=O)N3c2nc3ccccc3s2)ccc1O (stereo unspecified)
2. Cc1nc(-c2ccccc2)cc2c1c(=O)oc1ccccc12
3. O=C1C=CC2=[N+]([O-])C(c3ccccc3)(c3ccccc3)C(=Nc3ccccc3)C2=C1

-- reply
59.5 µM
> 100 µM
31.8 µM

Provide TGI values for the following items, in order.
1. CCOC(=O)Cc1csc2[n+]1C(=O)/C(=C/c1cccc(OC)c1O)S2
2. CC(=O)Oc1cc2c(c3ncccc13)OC(C)(C)C2
3. O=C(N/N=C/c1ccc([N+](=O)[O-])o1)c1ccc(C(=O)N/N=C/c2ccc([N+](=O)[O-])o2)cc1
4. CC(C)OP(=O)(OC(C)C)/C(C#N)=C/c1ccco1
5. CC(=O)OC1CC2Oc3ccc(C)cc3C(C)(O2)C1=O (stereo unspecified)
6. CN1CCCCC(C#N)(c2ccccc2)CC1 (stereo unspecified)
7. COC1=CC23CCCN2CCc2cc4c(cc2C3C1O)OCO4 (stereo unspecified)

-- reply
1: > 100 µM; 2: > 100 µM; 3: > 100 µM; 4: > 100 µM; 5: > 100 µM; 6: > 100 µM; 7: > 100 µM

Provide TGI values for the following items, in order.
1. Cc1cc(S(=O)(=O)/N=C(\[N-]S(=O)(=O)c2ccc(Cl)cc2)[n+]2ccc(N(C)C)cc2)c(S)cc1Cl
2. COC1=CC(=O)C(OC)=C(OC)C1=O
3. C/C(=N\Nc1nc2ccccc2n1C)c1cnccn1
4. O=C1N2CCc3c([nH]c4ccccc34)C23CC2CCCCC12S3 (stereo unspecified)
5. CCCCCCCCCCCCCCCC[N+](C)(CCO)Cc1cnc[nH]1 (stereo unspecified)
6. OC(COc1ccc(F)cc1)Cn1cnc2c(Cl)ncnc21 (stereo unspecified)

-- reply
["> 100 µM", "> 100 µM", "> 100 µM", "> 100 µM", "5.22 µM", "> 100 µM"]

----------
- Tested on: HOP-92 NSCLC
- test-summary: NCI tumour cell line growth inhibition, 48 h
experimental-endpoint: GI50

Provide GI50 values for the following items, in order.
1. CCCCCCCCCCCCCCCC[N+](C)(CCO)Cc1cnc[nH]1 (stereo not drawn)
2. CC(=O)N1c2ccccc2NC2=C(C(=O)N(Cc3ccccc3)C2(C)C)C1c1ccco1 (stereo not drawn)
3. CS(=O)(=O)CCNCc1ccc(-c2ccc3ncnc(Nc4ccc(OCc5cccc(F)c5)c(C(F)(F)F)c4)c3c2)o1

-- reply
922 nM
1020 nM
847 nM

----------
Answer each item with its documented log10(TGI).
- Test system: UO-31 renal
- test-summary: NCI tumour cell line growth inhibition, 48 h
The base-10 logarithm of TGI, taken with TGI in µM, is what appears here.

Would you please look over these solved cases?
# compound, log10(TGI)
rows = [
    ("COC1=CC(=O)C(OC)=C(OC)C1=O", 1.42),
    ("CN(C)c1ncc(-c2ccc(C(F)(F)F)cc2)c(NC2CCCCCC2)n1", 1.55),
    ("CCCC(=O)O[C@H]1C=C2C[C@@]34SS[C@]5(CC6=C[C@H](OC(C)=O)[C@@H]7O[C@@H]7[C@H]6N5C3=O)C(=O)N4[C@@H]2[C@H]2O[C@H]21", -0.76),
    ("CC=CCOc1cc(NC(=S)OC(C)C)ccc1Cl (mixture of isomers)", 1.39),
]

Provide log10(TGI) values for the following items, in order.
1. CCOC(=O)c1sc(N/N=C2\NC(=O)/C(=C/c3ccc([N+](=O)[O-])cc3)S2)nc1C
2. S=C(Nc1ccc(Cl)cc1)Nc1ccc(-c2nc3ccccc3o2)cc1

-- reply
1.67
1.42

----------
- Test system: RPMI-8226 leukemia
- test-summary: NCI tumour cell line growth inhibition, 48 h
experimental-endpoint: GI50

# compound, GI50
measured = [
    ("CN1CCN(c2ccc(Nc3nc(N)c(C(=O)c4ccc5c(c4)OCCO5)s3)cc2)CC1", "3850 nM"),
    ("CCCCCCCCCc1cc[n+](CC(=O)c2ccc([N+](=O)[O-])cc2)cc1", "439 nM"),
    ("Cc1nccc2c3ccc(OCc4cn(-c5ccc(Cl)cc5)nn4)cc3n(CCCc3ccccc3)c12", "2450 nM"),
    ("Fc1ccc(-c2ncn(C3CCNCC3)c2-c2ccnc(Oc3ccc(F)c(F)c3)n2)cc1", "12500 nM"),
    ("N#CC(C#N)N=Nc1ccc(Br)cc1", "1520 nM"),
]

Provide GI50 values for the following items, in order.
1. COc1cc(/C=C/c2cc(/C=C/c3ccc(O)c(OC)c3)nc(N)n2)ccc1O
2. COc1ccc(C[C@@H]2NC[C@@H](O)[C@@H]2OC(C)=O)cc1

-- reply
1. 1290 nM
2. 1790 nM

----------
- System: HCT-15 colon
- test-summary: NCI tumour cell line growth inhibition, 48 h
experimental-endpoint: GI50

Would you please look over these solved cases?
# compound, GI50
data = [
    ("Fc1ccc(-c2ncn(C3CCNCC3)c2-c2ccnc(Oc3ccc(F)c(F)c3)n2)cc1", "5.64 µM"),
    ("CS(=O)(=O)CCNCc1ccc(-c2ccc3ncnc(Nc4ccc(OCc5cccc(F)c5)c(C(F)(F)F)c4)c3c2)o1", "4.02 µM"),
    ("CCCCCCCCCCCCCCCC[N+](C)(CCO)Cc1cnc[nH]1 (stereo not given)", "3.03 µM"),
    ("N#CC(C#N)N=Nc1ccc(Br)cc1", "3.22 µM"),
]

Provide GI50 values for the following items, in order.
1. C[C@@H]1Cc2c([nH]c3ccccc23)[C@@H](c2c(F)cc(NC3CN(CCCF)C3)cc2F)N1CC(F)(F)CO
2. Nc1nc2cc3ccc(C4CC(O)C(CO)O4)cc3cc2c(=O)[nH]1 (stereo not given)
3. O=C(/C=C/C=C/c1c(C2CC2)nc2ccccc2c1-c1ccc(F)cc1)c1cccs1
4. Cc1nccc2c3ccc(OCc4cn(-c5ccc(Cl)cc5)nn4)cc3n(CCCc3ccccc3)c12
5. COc1cc2c3c(n(CCCNCCCNCCCNCCCN)c(=O)c2cc1OC)-c1cc2c(cc1C3=O)OCO2
6. O=[N+]([O-])c1ccccc1NC1c2ccccc2Oc2ccccc21

-- reply
["3.5 µM", "> 100 µM", "1.06 µM", "2.57 µM", "6.77 µM", "3.5 µM"]
